Give Dmax for every item shown.
target: IKZF2 (Homo sapiens, UniProt Q96SW2+Q9UKS7); experiment: HEK293 HiBiT in vitro degradation of IKZF2; type: cell-based; design: expressed in transfected cells; settings: HEK293, HEK293 HiBiT; maximum degradation at the highest concentration tested
Sequence (Q9UKS7 1-500 isoform Q9UKS7-2): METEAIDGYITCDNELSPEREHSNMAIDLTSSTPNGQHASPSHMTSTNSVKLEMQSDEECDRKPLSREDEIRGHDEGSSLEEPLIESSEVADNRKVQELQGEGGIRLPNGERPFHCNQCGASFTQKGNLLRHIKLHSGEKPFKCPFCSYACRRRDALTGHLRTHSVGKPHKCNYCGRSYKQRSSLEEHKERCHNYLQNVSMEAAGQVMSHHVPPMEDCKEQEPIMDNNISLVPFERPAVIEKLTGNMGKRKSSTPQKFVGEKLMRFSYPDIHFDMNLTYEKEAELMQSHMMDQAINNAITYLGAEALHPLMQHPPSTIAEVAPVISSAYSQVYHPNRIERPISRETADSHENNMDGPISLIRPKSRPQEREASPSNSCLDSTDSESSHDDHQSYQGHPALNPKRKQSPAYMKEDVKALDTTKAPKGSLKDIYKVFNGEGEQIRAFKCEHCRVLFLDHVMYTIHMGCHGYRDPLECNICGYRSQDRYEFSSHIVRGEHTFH
Sequence (Q96SW2 whole entry): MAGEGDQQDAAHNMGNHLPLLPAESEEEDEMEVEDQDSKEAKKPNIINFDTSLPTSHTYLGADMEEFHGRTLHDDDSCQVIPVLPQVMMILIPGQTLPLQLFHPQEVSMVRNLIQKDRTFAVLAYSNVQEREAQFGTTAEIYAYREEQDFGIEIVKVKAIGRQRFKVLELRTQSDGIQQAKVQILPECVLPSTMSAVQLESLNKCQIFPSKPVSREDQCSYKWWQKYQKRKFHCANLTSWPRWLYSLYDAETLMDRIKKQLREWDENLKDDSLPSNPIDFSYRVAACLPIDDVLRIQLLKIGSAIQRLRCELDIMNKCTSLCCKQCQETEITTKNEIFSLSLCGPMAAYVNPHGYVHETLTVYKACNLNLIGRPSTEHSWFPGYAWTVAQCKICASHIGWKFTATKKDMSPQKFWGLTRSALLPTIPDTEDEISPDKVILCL
Sequence (Q16531 whole entry partner): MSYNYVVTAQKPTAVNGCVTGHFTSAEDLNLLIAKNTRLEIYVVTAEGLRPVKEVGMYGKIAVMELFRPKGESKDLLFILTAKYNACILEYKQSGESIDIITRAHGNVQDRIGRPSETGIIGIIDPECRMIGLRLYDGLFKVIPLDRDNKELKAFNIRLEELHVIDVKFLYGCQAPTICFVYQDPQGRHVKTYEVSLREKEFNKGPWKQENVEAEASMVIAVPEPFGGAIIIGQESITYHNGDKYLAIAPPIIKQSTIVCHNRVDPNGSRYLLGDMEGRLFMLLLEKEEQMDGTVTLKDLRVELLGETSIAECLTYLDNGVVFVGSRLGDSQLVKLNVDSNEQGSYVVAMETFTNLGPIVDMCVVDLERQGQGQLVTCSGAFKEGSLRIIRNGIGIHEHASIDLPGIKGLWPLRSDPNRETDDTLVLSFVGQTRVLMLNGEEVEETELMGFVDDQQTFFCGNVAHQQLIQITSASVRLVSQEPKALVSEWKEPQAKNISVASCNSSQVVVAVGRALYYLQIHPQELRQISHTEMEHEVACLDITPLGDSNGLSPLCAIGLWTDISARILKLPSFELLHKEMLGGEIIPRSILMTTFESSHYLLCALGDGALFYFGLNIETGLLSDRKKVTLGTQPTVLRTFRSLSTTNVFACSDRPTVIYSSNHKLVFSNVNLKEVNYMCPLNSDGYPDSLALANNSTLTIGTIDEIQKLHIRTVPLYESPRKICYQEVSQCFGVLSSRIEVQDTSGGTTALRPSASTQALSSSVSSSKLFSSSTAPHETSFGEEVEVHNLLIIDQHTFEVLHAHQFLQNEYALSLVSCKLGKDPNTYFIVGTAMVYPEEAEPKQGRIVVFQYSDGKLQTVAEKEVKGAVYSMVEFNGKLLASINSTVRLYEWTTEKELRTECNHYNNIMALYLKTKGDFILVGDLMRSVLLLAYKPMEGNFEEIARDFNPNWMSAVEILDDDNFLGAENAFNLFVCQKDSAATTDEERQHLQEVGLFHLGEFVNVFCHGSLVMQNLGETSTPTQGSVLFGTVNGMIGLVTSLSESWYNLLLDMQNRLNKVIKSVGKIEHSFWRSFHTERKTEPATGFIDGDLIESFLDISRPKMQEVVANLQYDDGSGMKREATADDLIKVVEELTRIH
Reply with a number, then the unit it belongs to.

The examples below pair each entry with its known result.
>>> value_observed("O=C1CCC(N2Cc3cc(C[C@H]4CCCC[C@@H]4NC4CC5(CC5)C4)ccc3C2=O)C(=O)N1 (stereo partly drawn) [Example 79]")
"94%"
>>> value_observed("O=C1CCC(N2Cc3cc(C[C@H]4CCCC[C@@H]4NC4CCC(n5cnnc5)CC4)ccc3C2=O)C(=O)N1 (stereo partly drawn) [Example 380]")
"71%"
>>> value_observed("O=C1CC[C@@H](N2Cc3c(ccc(C[C@H]4OCCC[C@@H]4N[C@H]4CC[C@@H](F)CC4)c3F)C2=O)C(=O)N1 (single isomer, unassigned) [Example 372]")
"94%"
>>> value_observed("O=C1CCC(N2Cc3cc(C[C@H]4CCC[C@H](O)[C@@H]4NC4CCC(F)(F)CC4)ccc3C2=O)C(=O)N1 (stereo partly drawn) [Example 163]")
"95%"
>>> value_observed("O=C1CCC(N2Cc3cc(C[C@H]4CCCC[C@@H]4NC4CC5CCC(C5)C4)ccc3C2=O)C(=O)N1 (stereo partly drawn) [Example 191]")
"97%"

# context switch: different compound, same Dmax
# lookup: Dmax of O=C1CCC(N2Cc3cc(C[C@H]4CCCC[C@@H]4NC4CCc5cn[nH]c5C4)ccc3C2=O)C(=O)N1 (single isomer, unassigned) [Example 358]
100%

---

target: IKZF1 (Homo sapiens, UniProt Q13422+Q96SW2); construct: expressed in transfected cells; test: HEK293 HiBiT in vitro degradation of IKZF1; type: cell-based; conditions: HEK293, HEK293 HiBiT; maximum degradation at the highest concentration tested
Sequence (Q13422 whole entry, one chain of several): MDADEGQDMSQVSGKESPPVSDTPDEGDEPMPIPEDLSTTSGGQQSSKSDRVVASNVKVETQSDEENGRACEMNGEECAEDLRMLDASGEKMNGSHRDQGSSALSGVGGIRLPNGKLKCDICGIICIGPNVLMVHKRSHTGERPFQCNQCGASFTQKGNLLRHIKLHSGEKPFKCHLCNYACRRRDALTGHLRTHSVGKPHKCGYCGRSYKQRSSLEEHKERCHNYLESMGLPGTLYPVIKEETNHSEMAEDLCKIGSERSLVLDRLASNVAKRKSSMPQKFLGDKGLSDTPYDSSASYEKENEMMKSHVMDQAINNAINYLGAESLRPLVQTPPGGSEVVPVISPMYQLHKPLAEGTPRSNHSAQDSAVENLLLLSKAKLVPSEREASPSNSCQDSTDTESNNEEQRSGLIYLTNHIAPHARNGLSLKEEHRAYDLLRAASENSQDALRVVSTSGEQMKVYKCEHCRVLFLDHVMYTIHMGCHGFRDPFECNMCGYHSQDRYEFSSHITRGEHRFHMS
Observation Type: Dmax

Known results for compounds:
>>> value_observed("O=C1CCC(N2Cc3cc(C[C@H]4CCCC[C@@H]4NC4CCC5(CC4)COC5)ccc3C2=O)C(=O)N1 (stereo partly drawn)")
"34%"
>>> value_observed("O=C1CCC(N2Cc3cc(C[C@H]4CCCC[C@@H]4NCc4cccnc4C(F)(F)F)ccc3C2=O)C(=O)N1 (stereo partly drawn)")
"34%"

Entry O=C1CCC(N2Cc3c(ccc(C[C@H]4OCCC[C@@H]4NCC4CCC(F)(F)CC4)c3F)C2=O)C(=O)N1 (stereo partly drawn) : reported Dmax = ?
36%

---

target: IKZF1 (Homo sapiens, UniProt Q13422+Q96SW2); construct: expressed in transfected cells; test: HEK293 HiBiT in vitro degradation of IKZF1; type: cell-based; conditions: HEK293 HiBiT, 18-24 hr incubation, normalized to DMSO control; read-out: IKZF1 EC50
For each record, write down the corresponding DC50.

For each of the compounds below, state DC50.
1. O=C1CCC(N2Cc3c(ccc(C[C@H]4OCCC[C@@H]4NC4CCCOC4)c3F)C2=O)C(=O)N1 (single isomer, unassigned) [Example 263]
2. CC(N[C@H]1CCCC[C@@H]1Cc1ccc2c(c1)CN(C1CCC(=O)NC1=O)C2=O)C1CCCC1 (stereo partly drawn) [Example 202]
3. O=C1CCC(N2Cc3cc(C[C@H]4CCCC[C@@H]4N4CC(Oc5ccccc5)C4)ccc3C2=O)C(=O)N1 (stereo partly drawn) [Example 32]

> 1000 nM
> 1000 nM
> 1000 nM
